All figures here come from paper PMC4433173.

- Assay target: hTRPA1 (Homo sapiens)
- Construct: expressed in transfected cells
- Sequence (O75762 whole entry): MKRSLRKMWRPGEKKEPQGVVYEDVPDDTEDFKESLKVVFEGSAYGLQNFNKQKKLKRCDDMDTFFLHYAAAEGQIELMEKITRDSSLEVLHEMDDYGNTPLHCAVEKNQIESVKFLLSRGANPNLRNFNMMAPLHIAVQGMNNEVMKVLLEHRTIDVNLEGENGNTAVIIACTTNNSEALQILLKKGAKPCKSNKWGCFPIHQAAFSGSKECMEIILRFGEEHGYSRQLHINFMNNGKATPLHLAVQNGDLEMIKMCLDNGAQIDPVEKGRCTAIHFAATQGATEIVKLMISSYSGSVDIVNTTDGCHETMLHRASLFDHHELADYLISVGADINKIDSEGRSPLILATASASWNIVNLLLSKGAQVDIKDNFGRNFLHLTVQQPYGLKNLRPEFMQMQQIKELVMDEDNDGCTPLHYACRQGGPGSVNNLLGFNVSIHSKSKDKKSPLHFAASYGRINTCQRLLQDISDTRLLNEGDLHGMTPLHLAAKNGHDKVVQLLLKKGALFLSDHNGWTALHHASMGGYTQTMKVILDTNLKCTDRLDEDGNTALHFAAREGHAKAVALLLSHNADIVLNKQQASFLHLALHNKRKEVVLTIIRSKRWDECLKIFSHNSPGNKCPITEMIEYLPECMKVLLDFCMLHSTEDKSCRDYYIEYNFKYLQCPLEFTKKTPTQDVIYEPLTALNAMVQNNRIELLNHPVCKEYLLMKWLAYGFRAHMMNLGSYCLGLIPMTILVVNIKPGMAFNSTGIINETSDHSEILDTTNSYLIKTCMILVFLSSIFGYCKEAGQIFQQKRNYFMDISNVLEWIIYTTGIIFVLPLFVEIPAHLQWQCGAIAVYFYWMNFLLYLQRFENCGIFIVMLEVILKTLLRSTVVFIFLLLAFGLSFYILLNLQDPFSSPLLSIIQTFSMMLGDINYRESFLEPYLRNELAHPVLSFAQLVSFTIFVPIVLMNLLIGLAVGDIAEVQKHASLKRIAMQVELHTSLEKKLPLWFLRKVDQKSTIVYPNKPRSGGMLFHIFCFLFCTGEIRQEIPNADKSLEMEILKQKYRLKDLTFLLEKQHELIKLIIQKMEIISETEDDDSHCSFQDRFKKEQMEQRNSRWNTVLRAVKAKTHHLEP
- Assay name: Cytosolic Ca2+ measurement with Fluo-4 AM on a fluorescence plate reader (FlexStation III), ΔRFU dose-response
- Type: cell-based
- Assay conditions: judged from maximum ΔRFU versus AITC
Metric name: agonist type at hTRPA1 (full / partial)

>>> val("COc1ccc(C=O)cc1")
"partial agonists"
>>> val("COc1ccc(/C=C/C=O)cc1 [trans-p-methoxycinnamaldehyde]")
"almost full agonists"
>>> val("C=CCc1ccc(OC)c(OC)c1")
"almost full agonists"
>>> val("C=CCc1ccc(OC)cc1")
"partial agonists"
>>> val("C=C(C)[C@@H]1CC=C(C)C(O)C1 (some centres unmarked)")
"almost full agonists"
